Measured pIC50 accompanies every entry in the list below.
tested on: EA.hy 926; test: Anti-angiogenic activity in human EAhy926 cells as growth inhibition after 24 hrs by CCK-8 assay; format: cell-based; conditions: EA.hy 926, 24 h
pIC50: −log10 of the molar value.
assay endpoint: pIC50

INSERT INTO measurements (record_smiles, assay_endpoint, reading) VALUES
  ('Nc1ncc2ccc(-c3ccc(NC(=O)C4(C(=O)Nc5ccc6c(c5)OCO6)CC4)cc3)cc2n1', 'pIC50', 4.53),
  ('Nc1ncc2ccc(-c3ccc(NC(=O)C4(C(=O)Nc5ccc(OCCCN6CCOCC6)c(F)c5)CC4)cc3)cc2n1', 'pIC50', 4.49);
